All values here come from ChEMBL document CHEMBL3351911.

inhibition overview
assay-target: Adenosine receptor A1 (Homo sapiens)
measurement-description: Displacement of [3H]N6-[(R)-1-methyl-2-phenylethyl]adenosine from human recombinant A1AR expressed in CHO cells at 10 uM
Type: cell-based
Please state the figure in %; there is no need to write the unit.

Examples with answers:
Reported inhibition of `Nc1ncnc2c1ncn2[C@H]1C[C@@H](CO)CO1` : 10

Reported inhibition of `OC[C@]1(O)CO[C@@H](n2cnc3c(NCc4cccc(Cl)c4)ncnc32)[C@@H]1O` : 19

Reported inhibition of `Nc1ncnc2c1ncn2[C@@H]1OC[C@](O)(CO)[C@H]1O` : 6

---
Reported inhibition of `OC[C@@]1(O)CO[C@@H](n2cnc3c(NCc4cccc(Cl)c4)ncnc32)[C@@H]1O` : 10

Reported inhibition of `COc1ccc(Cl)cc1CNc1ncnc2c1ncn2[C@@H]1OC[C@](O)(CO)[C@H]1O` : 12

Reported inhibition of `CCNC(=O)[C@@H]1CO[C@@H](n2cnc3c(N)ncnc32)[C@@H]1O` : 8

Reported inhibition of `Nc1c2ncn([C@@H]3OC[C@@](O)(CO)[C@H]3O)c2nc[n+]1Cc1cccc(Cl)c1` : 6

Reported inhibition of `OC[C@]1(O)CO[C@@H](n2cnc3c(NCc4cccc(I)c4)ncnc32)[C@@H]1O` : 35

Reported inhibition of `CNC(=O)OC[C@@]1(O)CO[C@@H](n2cnc3c(N)ncnc32)[C@@H]1O` : 12

Reported inhibition of `OC[C@@]1(O)CO[C@@H](n2cnc3c(NCc4cccc(I)c4)ncnc32)[C@@H]1O` : 27

====

assay-target: Adenosine receptor A2a (Homo sapiens)
measurement-description: Displacement of [3H]2-[p-(2-carboxyethyl)phenylethylamino]-50-N-ethylcarboxamidoadenosine from human recombinant A2AR expressed in HEK293 cells at 10 uM
Assay type: cell-based
inhibition overview
Please state the figure in %; there is no need to write the unit.

Reported inhibition of `Nc1ncnc2c1ncn2[C@@H]1OC[C@](O)(CO)[C@H]1O` : 19

Reported inhibition of `CCNC(=O)OC[C@]1(O)CO[C@@H](n2cnc3c(N)ncnc32)[C@@H]1O` : 12

Reported inhibition of `CNC(=O)OC[C@@]1(O)CO[C@@H](n2cnc3c(N)ncnc32)[C@@H]1O` : 10

---
Reported inhibition of `COc1ccc(Cl)cc1CNc1ncnc2c1ncn2[C@@H]1OC[C@](O)(CO)[C@H]1O` : 17

====

inhibition overview
assay-target: Adenosine receptor A2a (Homo sapiens) (UniProt P29274)
Sequence (P29274 whole entry): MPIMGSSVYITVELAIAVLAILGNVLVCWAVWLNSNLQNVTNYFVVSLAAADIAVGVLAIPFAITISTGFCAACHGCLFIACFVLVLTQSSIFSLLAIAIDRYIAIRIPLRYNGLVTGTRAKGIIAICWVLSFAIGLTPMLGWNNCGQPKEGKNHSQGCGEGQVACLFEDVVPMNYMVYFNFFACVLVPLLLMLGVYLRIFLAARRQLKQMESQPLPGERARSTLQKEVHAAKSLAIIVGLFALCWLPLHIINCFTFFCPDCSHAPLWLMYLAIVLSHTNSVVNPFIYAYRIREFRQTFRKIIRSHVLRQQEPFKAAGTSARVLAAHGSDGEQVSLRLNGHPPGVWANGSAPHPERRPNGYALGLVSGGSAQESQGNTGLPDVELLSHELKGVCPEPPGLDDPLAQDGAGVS
measurement-description: Displacement of [3H]2-[p-(2-carboxyethyl)phenylethylamino]-50-N-ethylcarboxamidoadenosine from human recombinant A2AR expressed in HEK293 cells at 10 uM
Format: cell-based
Please state the figure in %; there is no need to write the unit.

Lab entry: Adenosine receptor A2a (Homo sapiens) (UniProt P29274) assay, compound `OC[C@]1(O)CO[C@@H](n2cnc3c(NCc4cccc(I)c4)ncnc32)[C@@H]1O` , inhibition = 22

Lab entry: Adenosine receptor A2a (Homo sapiens) (UniProt P29274) assay, compound `CCNC(=O)[C@@H]1CO[C@@H](n2cnc3c(N)ncnc32)[C@@H]1O` , inhibition = 9

Lab entry: Adenosine receptor A2a (Homo sapiens) (UniProt P29274) assay, compound `OC[C@@]1(O)CO[C@@H](n2cnc3c(NCc4cccc(I)c4)ncnc32)[C@@H]1O` , inhibition = 17

Continue with the compound presented below.
Lab entry: Adenosine receptor A2a (Homo sapiens) (UniProt P29274) assay, compound `CCNC(=O)OC[C@@H]1CO[C@@H](n2cnc3c(N)ncnc32)[C@@H]1O` , inhibition = 2

====

assay-target: Adenosine receptor A3 (Homo sapiens)
Sequence (P0DMS8 whole entry): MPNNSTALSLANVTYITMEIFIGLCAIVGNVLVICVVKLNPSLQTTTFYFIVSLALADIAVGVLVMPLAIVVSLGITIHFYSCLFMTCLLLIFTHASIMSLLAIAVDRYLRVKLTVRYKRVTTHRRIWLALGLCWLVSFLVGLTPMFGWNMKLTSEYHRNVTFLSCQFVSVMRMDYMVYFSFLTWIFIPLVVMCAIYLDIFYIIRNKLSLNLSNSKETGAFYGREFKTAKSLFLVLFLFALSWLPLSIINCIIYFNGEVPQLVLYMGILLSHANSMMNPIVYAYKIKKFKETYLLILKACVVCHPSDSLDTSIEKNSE
measurement-description: Agonist activity at human recombinant A3AR expressed in CHO cells assessed as inhibition of forskolin-induced stimulation of cAMP production
Type: functional, cell-based
test-readout: IC50 (µM)
Please state the figure in µM; there is no need to write the unit.

Reported IC50 of `COc1ccc(Cl)cc1CNc1ncnc2c1ncn2[C@@H]1OC[C@@](O)(CO)[C@H]1O` : 1.56

====

assay-target: Adenosine receptor A1 (Homo sapiens) (UniProt P30542)
Sequence (P30542 whole entry): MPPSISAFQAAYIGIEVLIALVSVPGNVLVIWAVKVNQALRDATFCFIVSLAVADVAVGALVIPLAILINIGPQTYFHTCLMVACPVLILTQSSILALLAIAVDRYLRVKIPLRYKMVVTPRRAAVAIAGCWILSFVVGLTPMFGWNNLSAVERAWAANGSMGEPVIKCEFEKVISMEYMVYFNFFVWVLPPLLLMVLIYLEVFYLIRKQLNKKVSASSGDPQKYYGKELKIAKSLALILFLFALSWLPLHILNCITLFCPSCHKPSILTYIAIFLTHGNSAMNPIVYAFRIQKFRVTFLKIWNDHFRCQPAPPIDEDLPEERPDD
measurement-description: Displacement of [3H]N6-[(R)-1-methyl-2-phenylethyl]adenosine from human recombinant A1AR expressed in CHO cells at 10 uM
Format: cell-based
inhibition overview

Reported inhibition of `Nc1ncnc2c1ncn2[C@@H]1OC[C@H](CO)[C@H]1O` : 6%

Reported inhibition of `CCNC(=O)OC[C@]1(O)CO[C@@H](n2cnc3c(N)ncnc32)[C@@H]1O` : 9%

Reported inhibition of `COc1ccc(Cl)cc1CNc1ncnc2c1ncn2[C@@H]1OC[C@@](O)(CO)[C@H]1O` : 13%

Reported inhibition of `CCNC(=O)OC[C@@H]1CO[C@@H](n2cnc3c(N)ncnc32)[C@@H]1O` : 7%

====

assay-target: Adenosine receptor A2a (Homo sapiens) (UniProt P29274)
measurement-description: Displacement of [3H]2-[p-(2-carboxyethyl)phenylethylamino]-50-N-ethylcarboxamidoadenosine from human recombinant A2AR expressed in HEK293 cells at 10 uM
Format: cell-based
test-readout: inhibition (%)
Please state the figure in %; there is no need to write the unit.

Reported inhibition of `Nc1ncnc2c1ncn2[C@@H]1OC[C@H](CO)[C@H]1O` : 19

====

inhibition overview
assay-target: Adenosine receptor A2a (Homo sapiens) (UniProt P29274)
measurement-description: Displacement of [3H]2-[p-(2-carboxyethyl)phenylethylamino]-50-N-ethylcarboxamidoadenosine from human recombinant A2AR expressed in HEK293 cells at 10 uM
Assay type: cell-based
Please state the figure in %; there is no need to write the unit.

Reported inhibition of `OC[C@]1(O)CO[C@@H](n2cnc3c(NCc4cccc(Cl)c4)ncnc32)[C@@H]1O` : 15

---
Reported inhibition of `Nc1c2ncn([C@@H]3OC[C@@](O)(CO)[C@H]3O)c2nc[n+]1Cc1cccc(Cl)c1` : 12

Reported inhibition of `COc1ccc(Cl)cc1CNc1ncnc2c1ncn2[C@@H]1OC[C@@](O)(CO)[C@H]1O` : 14

Reported inhibition of `Nc1ncnc2c1ncn2[C@H]1C[C@@H](CO)CO1` : 15

Reported inhibition of `OC[C@@]1(O)CO[C@@H](n2cnc3c(NCc4cccc(Cl)c4)ncnc32)[C@@H]1O` : 10
